# OD listing for each entry below
tgt: AchR (Homo sapiens)
Sequence (P02708 21-457): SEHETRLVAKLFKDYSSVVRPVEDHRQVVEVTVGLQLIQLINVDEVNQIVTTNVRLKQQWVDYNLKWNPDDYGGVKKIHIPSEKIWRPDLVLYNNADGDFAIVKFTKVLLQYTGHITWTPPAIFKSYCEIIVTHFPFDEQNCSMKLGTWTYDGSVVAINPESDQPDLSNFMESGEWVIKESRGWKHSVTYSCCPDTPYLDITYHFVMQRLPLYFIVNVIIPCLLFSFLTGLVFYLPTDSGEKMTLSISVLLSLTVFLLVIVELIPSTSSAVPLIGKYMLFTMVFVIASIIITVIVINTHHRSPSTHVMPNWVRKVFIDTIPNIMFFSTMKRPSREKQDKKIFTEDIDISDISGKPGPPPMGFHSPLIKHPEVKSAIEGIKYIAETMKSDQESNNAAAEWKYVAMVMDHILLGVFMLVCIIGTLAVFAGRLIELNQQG
method: ELISA of screened peptide phages on AchR versus streptavidin (OD450)
Assay type: binding
condition_summary: ELISA of selected 14-mer (L3) peptide phages on AchR, absorbance at 450 nm; Spep-2 positive control
Experimental: The output phages for the 4th and 5th rounds of biopanning in Example 13-1 were inoculated to E. coli, and plated on the agar plates so as to form 100-200 plaques per plate. […] In a 96-well ELISA plate, 5 μg/ml AchR or streptavidin was added at 50 μl per well, and left at 4° C. overnight. […] The measured absorbance was converted into a ratio of AchR absorbance to streptavidin absorbance (AchR signal/streptavidin signal), and the results are shown in FIGS. 14 to 16.
Number only, no unit.

-- ask State the recorded OD for this entry: L3-65 (CLEKLRKAVHRQRR; AchR binding peptide) [Peptide L3-65]
-- reply 0.731

-- ask Try the substance L3-145 (MHIKMKREQVKDEE; AchR binding peptide) [Peptide L3-145]
-- reply 0.495

-- ask Try the substance L3-174 (SSGKWKRPHAKYIV; AchR binding peptide) [Peptide L3-174]
-- reply 0.783

-- ask Try the substance L3-104 (ASVRDRKMGYKSDG; AchR binding peptide) [Peptide L3-104]
-- reply 0.57

-- ask Try the substance L3-189 (ELVKHRRLDFRDPM; AchR binding peptide) [Peptide L3-189]
-- reply 0.786
